Hey, just so you know, these numbers are from paper PMC10786891.

- TEST SYSTEM: T1, EsCas13d, nuclease-dead (Eubacterium siraeum, UniProt B0MS50, R295A;H300A;R849A;H854A)
- T1 sequence: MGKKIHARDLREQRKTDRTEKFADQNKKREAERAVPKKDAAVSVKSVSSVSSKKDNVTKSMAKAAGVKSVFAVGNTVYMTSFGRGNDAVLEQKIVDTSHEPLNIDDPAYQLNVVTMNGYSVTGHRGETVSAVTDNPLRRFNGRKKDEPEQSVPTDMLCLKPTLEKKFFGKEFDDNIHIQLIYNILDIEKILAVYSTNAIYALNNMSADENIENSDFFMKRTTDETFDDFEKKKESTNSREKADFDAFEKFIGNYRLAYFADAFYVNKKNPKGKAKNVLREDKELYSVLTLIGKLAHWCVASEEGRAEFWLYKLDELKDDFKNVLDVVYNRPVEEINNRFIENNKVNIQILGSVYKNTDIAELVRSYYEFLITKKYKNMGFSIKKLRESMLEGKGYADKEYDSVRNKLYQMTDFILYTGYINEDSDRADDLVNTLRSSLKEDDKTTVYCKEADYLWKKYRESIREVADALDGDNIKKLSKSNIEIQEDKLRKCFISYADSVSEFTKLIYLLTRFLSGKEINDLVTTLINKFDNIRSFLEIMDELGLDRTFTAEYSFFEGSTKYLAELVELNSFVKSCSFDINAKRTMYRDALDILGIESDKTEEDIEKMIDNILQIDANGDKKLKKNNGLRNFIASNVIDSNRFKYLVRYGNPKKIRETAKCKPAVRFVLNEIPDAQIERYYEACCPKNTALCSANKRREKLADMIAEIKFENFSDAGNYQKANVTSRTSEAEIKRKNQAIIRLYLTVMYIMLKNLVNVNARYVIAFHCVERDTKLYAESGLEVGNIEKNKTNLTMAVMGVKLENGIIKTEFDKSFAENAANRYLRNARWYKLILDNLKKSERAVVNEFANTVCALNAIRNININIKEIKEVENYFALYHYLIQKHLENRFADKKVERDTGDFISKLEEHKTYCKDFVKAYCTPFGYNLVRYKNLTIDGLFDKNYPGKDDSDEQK
- ASSAY REMARKS: crRNA (strand 1, pre-loaded); Mg2+; 40 mM Tris-HCl pH 7.5, 150 mM NaCl, 6 mM MgCl2, 1 mM DTT, 0.1% Tween-20, 0.2 mg/ml BSA; 25 C; 10 min per concentration, then washed
- ASSAY CONTEXT: tags: His6-TwinStrep-SUMO cleaved; N-terminal SNAP kept (SNAP-Surface 488); label: 3' end held by stalled T7 RNA polymerase
MEASURED PROPERTY: pKd
Interpret pKd as the negative base-10 log of the concentration measured in mol/L.

Exercise: Name the recorded pKd for target 1 C6G,A9G (mixed) RNA 1: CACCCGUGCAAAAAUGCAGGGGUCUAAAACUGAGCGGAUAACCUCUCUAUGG RNA 2: GGGAAUGGAUCCACAUCUACGAAUUCGUACCAUAGAGAGGUUGUCGGCUCACCGAGAUCGGAAGAGCACACGU .
Solution: 7.97

Note: attention shifts to another entry.
Exercise: Requested read-out: pKd. Entry: target 1 insC 3' of 9,insA 3' of 3 (mixed) RNA 1: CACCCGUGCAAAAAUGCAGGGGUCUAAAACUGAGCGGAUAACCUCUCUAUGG RNA 2: GGGAAUGGAUCCACAUCUACGAAUUCGUACCAUAGAGAGGUUACUCCGCUACACCGAGAUCGGAAGAGCACACGU
Solution: 7.95
